Each recorded value in this set is attributed to patent US20130251703A1.

# assay system: human HER3 endogenously expressed on human cancer cells (SK-Br-3, BT-474, MCF7) (human, UniProt P21860 20-1342)
# experimental protocol: cell-based or functional assay

| binder | measure unit | BT-474 pAkt IC50 |
| --- | --- | --- |
| MOR12606 (antibody, human IgG1, kappa, V domains shown, Tested as IgG) VH: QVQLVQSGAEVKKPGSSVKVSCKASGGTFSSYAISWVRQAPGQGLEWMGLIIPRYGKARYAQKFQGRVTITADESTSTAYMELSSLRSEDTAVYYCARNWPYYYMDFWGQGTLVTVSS VL: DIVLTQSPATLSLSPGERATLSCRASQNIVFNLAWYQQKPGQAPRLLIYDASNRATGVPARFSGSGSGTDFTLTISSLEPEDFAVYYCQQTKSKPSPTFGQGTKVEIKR | pM | 91 |
| MOR13657 (antibody, human IgG1, lambda, V domains shown, Tested as IgG) VH: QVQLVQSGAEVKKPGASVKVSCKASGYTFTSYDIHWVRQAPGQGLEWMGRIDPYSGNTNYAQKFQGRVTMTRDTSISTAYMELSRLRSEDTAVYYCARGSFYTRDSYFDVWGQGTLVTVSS VL: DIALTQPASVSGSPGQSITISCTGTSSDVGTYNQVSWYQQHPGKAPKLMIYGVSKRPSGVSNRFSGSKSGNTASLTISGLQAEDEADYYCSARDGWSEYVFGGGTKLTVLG | pM | 586 |
| MOR13658 (antibody, human IgG1, lambda, V domains shown, Tested as IgG) VH: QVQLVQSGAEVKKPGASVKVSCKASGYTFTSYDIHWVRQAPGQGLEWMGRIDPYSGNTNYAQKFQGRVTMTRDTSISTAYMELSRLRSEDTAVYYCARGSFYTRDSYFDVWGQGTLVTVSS VL: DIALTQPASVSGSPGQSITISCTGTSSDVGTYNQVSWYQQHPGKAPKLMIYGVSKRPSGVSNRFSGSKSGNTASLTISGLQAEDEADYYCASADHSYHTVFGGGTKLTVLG | pM | 461 |
